All figures here come from PubChem BioAssay AID248.

# Test system: L1210 leukemia ip in BDF1 mice, survival T/C
# experimental protocol: NCI In Vivo Anticancer Drug Screen. Data for tumor model L1210 Leukemia (intraperitoneal) in B6D2F1 (BDF1) mice
# assay context: endpoint: mean survival time; dose: 25.0 mg/kg/injection; schedule: Q04DX003 (ip); vehicle: saline; higher = longer survival
Toxic doses and inconclusive results are not listed.
T/C values by entry
quantity: T/C

> print(dat)
                                   compound  quantity       test.result
1  NC1CCC(CC2CC3CCC2C3)CC1 (centres undefined)       T/C  100 % of control
2  CCCCN1CCN2C(=O)N(CC)CCC2C1 (centres undefined)       T/C   91 % of control
3       CC1(C)C[N+](Cc2ccccc2)(Cc2ccccc2)C1       T/C   98 % of control
4  CC1CN1P1(N2CC2C)=NP(N2CC2C)(N2CC2C)=NP(N2CC2C)(N2CC2C)=N1 (centres undefined)       T/C  116 % of control
